Target: Caspase-3 (Homo sapiens, UniProt P42574);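 also: Dose-response selectivity test against caspase-3 for candidate inhibitors of sentrin-specific proteases (SENPs)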
Format: functional
The source made the active and inactive calls.
Bench note: report the call from active, inactive

Query: Outcome logged for Cc1cc(C(=O)N=Nc2c(O)n(C)c3ccccc23)c(C)o1 in this assay:
Reply: active

Query: // outcome(item) with item = Oc1nc(Nc2ccccc2)sc1/C=C1\C=Nc2ccccc21
Reply: active

Query: Please share the test call associated with Oc1ccc(-c2nc3ccccn3c2NCc2ccco2)cc1 .
Reply: active

Query: Status in this test for CN(C)c1ccc(N=Nc2cccc3ccoc23)cc1 ?
Reply: active

Query: For this compound, state the assay outcome: Cc1ccc(-c2cc(-c3cccc(F)c3)[nH]n2)c(O)c1
Reply: active

Query: For Cc1ccc(C(=O)NNc2cc(N3CCCC3)nc(N3CCCC3)n2)cc1 , what call appears in the results of this test?
Reply: inactive

Query: Hi, do you know how Cc1ccc(COc2ccc(/C=N/O)cc2)cc1 came out in this test?
Reply: active

----------
For each of the compounds below, state its IC50.
System: H9c2;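 also: cell death induced by hydrogen peroxide oxidative stress; compound pretreatment for 60 min then peroxide exposure for 2 h; potency is for protecting the cells against peroxide damage rather than for killing them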;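 also: confirmatory concentration-response retest of ultra-high-throughput screening hits for modulation of myocardial damage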
Assay: cells
Type: functional, cell-based
Settings: Rattus norvegicus, H9c2, Myocardium
Activity calls are given as the source filed them.

Query: Respond only with IC50 recorded for COc1cccc(C(=O)Nc2c(C(N)=O)oc3ccccc23)c1
Reply: > 79 µM (inactive)

Query: Could you please provide reported IC50 for Cc1ccc(C(=O)OCC(=O)Nc2sccc2C(N)=O)cc1NC(=O)c1ccco1 ? Thanks!
Reply: > 79 µM (inactive)

Query: Kindly indicate its recorded IC50. Item: CCOC(=O)c1c2ccc(OCC(=O)N/N=C/c3ccc(C)cc3)cc2n2ccccc12
Reply: 40.5 µM (inactive)

Query: Please give the documented IC50 of C=CCc1ccccc1OCC(=O)N/N=C/c1ccc(OC(C)=O)cc1OC(C)=O
Reply: > 79 µM (inactive)

----------
Give AC50 for every item shown.
Molecular target: Paired box protein Pax-8 (Homo sapiens, UniProt Q06710)
Sequence (Q06710 whole entry): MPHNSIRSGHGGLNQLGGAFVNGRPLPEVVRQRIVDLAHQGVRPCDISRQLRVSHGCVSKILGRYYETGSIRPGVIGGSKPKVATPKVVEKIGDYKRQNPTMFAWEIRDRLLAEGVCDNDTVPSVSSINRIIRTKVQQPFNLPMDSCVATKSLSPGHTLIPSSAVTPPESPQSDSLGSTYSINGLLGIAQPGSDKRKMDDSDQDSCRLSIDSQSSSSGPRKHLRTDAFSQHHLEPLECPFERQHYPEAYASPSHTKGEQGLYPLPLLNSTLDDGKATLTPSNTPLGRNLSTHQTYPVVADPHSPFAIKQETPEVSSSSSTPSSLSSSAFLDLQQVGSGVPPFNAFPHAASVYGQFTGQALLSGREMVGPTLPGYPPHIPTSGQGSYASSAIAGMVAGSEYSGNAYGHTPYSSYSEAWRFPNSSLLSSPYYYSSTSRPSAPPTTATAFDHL
Test: inhibitors of PAX8-driven TPO luciferase reporter, dose response, RMG-I cells, cherry-pick (AID 687027);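 also: luciferase reporter driven by Pax8 target thyroperoxidase promoter measured by SteadyGlo luminescence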
Type: functional, cell-based
The source made the active and inactive calls.

Query: Give AC50 for C[C@@H]1CN([C@H](C)CO)C(=O)c2cc(NS(=O)(=O)c3cccs3)ccc2O[C@@H](C)CCCCO[C@H]1CN(C)Cc1ccc(Cl)c(Cl)c1
Reply: 9.2 µM (active)

Query: For the compound C[C@H](CO)N1C[C@H](C)[C@H](CN(C)C(=O)Nc2ccc(-c3cccs3)cc2)OCc2cnnn2CCCC1=O , give its reported AC50.
Reply: < 0.26 µM (active)

Query: Tell me AC50 reported for O=C(C[C@@H]1CC[C@@H]2[C@H](COC[C@H](O)CN2Cc2ccc3c(c2)OCO3)O1)Nc1ccc(-c2ccccc2)cc1
Reply: 9.11 µM (active)

Query: Given the compound C[C@@H]1CCCCO[C@@H](CN(C)C(=O)C2CCCCC2)[C@H](C)CN([C@H](C)CO)C(=O)c2cc(NS(=O)(=O)c3ccc(Cl)cc3)ccc2O1 , write its reported AC50.
Reply: 4.99 µM (active)

Query: Let me know recorded AC50 for CCCCCCCN(C(=O)CCl)c1cccc(C)c1 , thanks.
Reply: 5.91 µM (active)

Query: Provide only the value of recorded AC50 for C[C@@H]1CCCCO[C@H](CN(C)S(=O)(=O)c2ccccc2)[C@H](C)CN([C@@H](C)CO)C(=O)c2cc(NS(=O)(=O)c3ccc(Cl)cc3)ccc2O1
Reply: 6.18 µM (active)

Query: Look up and state reported AC50 for O=c1cc(-c2ccc(O)cc2)oc2ccc3ccccc3c12
Reply: 8.88 µM (active)
